These measurements were taken from patent US20260027132A1.

# System: panelists
# Test description: Sleep study with panelists smelling test material at bedtime, Fitbit sleep data versus blank control
# Type: in vivo, human
# Applied conditions: vs blank control (no fragrance), 0.06 g neat oil on a blotter, smelled at bedtime, jar left open, one week
Readout kind: Total minutes awake % Decrease (%)
Express it in %; write the number only.

# input Short answer please: Total minutes awake % Decrease, panelists, entry CC1(C)CCC[C@]2(C)[C@H]3CCO[C@]3(C)CC[C@@H]12
# output 8

# input Short answer please: Total minutes awake % Decrease, panelists, entry CC(=O)/C=C/C1=C(C)CCCC1(C)C
# output 12

# input Short answer please: Total minutes awake % Decrease, panelists, entry O=C1CCCCCCCCCCCC(=O)OCCO1
# output 13

# input Short answer please: Total minutes awake % Decrease, panelists, entry CC(C=O)Cc1ccc(C(C)C)cc1 (centres unmarked)
# output 7

# input Short answer please: Total minutes awake % Decrease, panelists, entry C=CC(C)(CCC=C(C)C)OC(C)=O (centres unmarked) [Linalyl acetate, linalyl acetate]
# output 10.6

----------
# Tested on: panelists
# Test description: Sleep study with panelists smelling test material at bedtime, Fitbit sleep data versus blank control
# Assay type: in vivo, human
# Applied conditions: vs blank control (no fragrance), 0.06 g neat oil on a blotter, smelled at bedtime, jar left open, one week
Readout kind: Total light sleep minutes % Increase (%)
Express it in %; write the number only.

# input GET /values?readout=Total light sleep minutes % Increase&item= CC(C)=CCC/C(C)=C\CO
# output 4

# input GET /values?readout=Total light sleep minutes % Increase&item= CC(C)=CCC/C(C)=C/CO
# output 8

# input GET /values?readout=Total light sleep minutes % Increase&item= C=CC(C)(O)CCC=C(C)C (stereo not drawn)
# output 5

# input GET /values?readout=Total light sleep minutes % Increase&item= CC(=O)/C=C/C1=C(C)CCCC1(C)C
# output 3

# input GET /values?readout=Total light sleep minutes % Increase&item= O=C1CCCC=CCCCCCCCCCC1
# output 4

# input GET /values?readout=Total light sleep minutes % Increase&item= CC(C)C(=O)OCCOc1ccccc1 [Phenoxyethyl isobutyrate, phenoxyethyl isobutyrate]
# output 8

# input GET /values?readout=Total light sleep minutes % Increase&item= CC(C=O)Cc1ccc(C(C)(C)C)cc1 (stereo not drawn)
# output 5

# input GET /values?readout=Total light sleep minutes % Increase&item= CC(C)[C@@H]1CC[C@@H](C)C[C@H]1O
# output 3

# input GET /values?readout=Total light sleep minutes % Increase&item= CC(=O)/C(C)=C/C1C(C)=CCCC1(C)C (stereo not drawn)
# output 12

----------
# Test system: panelists
# Test description: Sleep study with panelists smelling test material at bedtime, Fitbit sleep data versus blank control
# Format: in vivo, human
# Applied conditions: vs blank control (no fragrance), 0.06 g neat oil on a blotter, smelled at bedtime, jar left open, one week
Readout kind: Total minutes asleep % Increase
State the value, then name its unit.

# input GET /values?readout=Total minutes asleep % Increase&item= CC(C=O)Cc1ccc(C(C)(C)C)cc1 (stereo not drawn)
# output 4%

# input GET /values?readout=Total minutes asleep % Increase&item= C=CC(C)CCCC(C)(C)O (stereo not drawn) [Dihydromyrcenol, dihydromyrcenol]
# output 13%

# input GET /values?readout=Total minutes asleep % Increase&item= CC(=O)/C=C/C1C(C)=CCCC1(C)C (stereo not drawn)
# output 5%

# input GET /values?readout=Total minutes asleep % Increase&item= CC(C)=CCC/C(C)=C\CO
# output 4%

# input GET /values?readout=Total minutes asleep % Increase&item= CC(C=O)Cc1ccc(C(C)C)cc1 (stereo not drawn)
# output 4%

# input GET /values?readout=Total minutes asleep % Increase&item= CC(C)=CCC/C(C)=C/CO
# output 10%
